Hey, just so you know, these numbers are from patent US20060233788A1.

The reader will find reported Ave. OD values listed item by item below.
Test System: T1, Fab 1621
T1 construct: Mouse Fab, kappa light chain
T1 sequence (VH, as listed by the source limits assumed, chain 1 of 2): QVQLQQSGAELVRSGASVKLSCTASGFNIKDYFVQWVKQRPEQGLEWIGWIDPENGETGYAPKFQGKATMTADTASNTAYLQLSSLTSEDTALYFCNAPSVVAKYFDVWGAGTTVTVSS
T1 sequence (VL, as listed by the source limits assumed, chain 2 of 2): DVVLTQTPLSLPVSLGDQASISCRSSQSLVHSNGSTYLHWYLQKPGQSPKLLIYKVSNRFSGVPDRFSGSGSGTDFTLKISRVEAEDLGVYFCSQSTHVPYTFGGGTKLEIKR
Protocol Summary: competitive ELISA, Fab 1621 on coated BSA-hGhrelin; compound 0.2 ug/ml
No end group written: not given here. *: point of attachment. Octanoyl = CCCCCCCC(=O)*
Value Type: Ave. OD (OD)

{"Binder": "GSSFLSPEHQKAQQRKESKKPPAKLQPR (peptide, UniProt Q9QYH7 24-51, looked up, also: acylated (position and acyl group not given here), mature; The UniProt entry is the precursor; the assay used the ghrelin peptide; also called rGhrelin) [full-length, acylated rat ghrelin]", "Value Type": "Ave. OD", "Unit Of Measure": "OD", "Result Value": 0.999}
{"Binder": "GSSFLSPEHQRVQQRKESKKPPAKLQPX (octanoyl group on the serine at position 3, the 1-28 form has Arg at 28; also called hGhrelin; acylated hGhrelin) [full-length human ghrelin (1-28) acylated with an octanoyl group on the serine at position 3]", "Value Type": "Ave. OD", "Unit Of Measure": "OD", "Result Value": 0.131}
{"Binder": "GSSFLSPE (also called hGhrelin (1-8 desacyl)) [Ghrelin (1-8, desacyl)]", "Value Type": "Ave. OD", "Unit Of Measure": "OD", "Result Value": 1.38}
{"Binder": "GSS(Octanoyl)FLSPE (also called hGhrelin (1-8 acyl); Human 1-8 acyl) [Ghrelin (1-8 acyl)]", "Value Type": "Ave. OD", "Unit Of Measure": "OD", "Result Value": 1.36}
{"Binder": "HQRVQQRKESKKPPAKLQPR (also called hGhrelin (9-28)) [Ghrelin (9-28)]", "Value Type": "Ave. OD", "Unit Of Measure": "OD", "Result Value": 1.04}
